# MIC per entry
- Tested on: Staphylococcus aureus
- Method Notes: Antibacterial activity against methicillin-resistant Staphylococcus aureus MRSA17-5 measured by liquid dilution method
- Assay type: functional

{"Molecular String": "CNC1=NC(=O)[C@H]([C@H](C)c2c[nH]c3c(F)cccc23)O1", "MIC": "1 µg/mL"}
{"Molecular String": "CNC1=NC(=O)[C@H]([C@H](C)c2c[nH]c3cccc(Br)c23)O1", "MIC": "2 µg/mL"}
{"Molecular String": "CNC1=NC(=O)[C@@H]([C@@H](C)c2c[nH]c3cccc(Br)c23)O1", "MIC": "128 µg/mL"}
{"Molecular String": "CNC1=NC(=O)[C@H]([C@H](C)c2c[nH]c3ccccc23)O1", "MIC": "0.5 µg/mL"}
{"Molecular String": "CNC1=NC(=O)[C@@H]([C@@H](C)c2c[nH]c3cc(F)ccc23)O1", "MIC": "> 128 µg/mL"}
{"Molecular String": "CNC1=NC(=O)[C@H]([C@H](C)c2c[nH]c3cc(F)ccc23)O1", "MIC": "16 µg/mL"}
{"Molecular String": "CNC1=NC(=O)[C@@H]([C@@H](C)c2c[nH]c3cccc(C)c23)O1", "MIC": "> 128 µg/mL"}
{"Molecular String": "CNC1=NC(=O)[C@H]([C@H](C)c2c[nH]c3cccc(F)c23)O1", "MIC": "1 µg/mL"}
{"Molecular String": "CNC1=NC(=O)[C@H]([C@H](C)c2c[nH]c3cccc(C)c23)O1", "MIC": "1 µg/mL"}
{"Molecular String": "CNC1=NC(=O)[C@@H]([C@@H](C)c2c[nH]c3cccc(F)c23)O1", "MIC": "> 128 µg/mL"}

Incoming: Consider the compound shown here: CNC1=NC(=O)[C@@H]([C@@H](C)c2c[nH]c3c(F)cccc23)O1 What is its recorded MIC?
Outgoing: 8 µg/mL

Incoming: One more compound: CNC1=NC(=O)[C@@H]([C@@H](C)c2c[nH]c3cccc(Cl)c23)O1
Outgoing: 64 µg/mL

Incoming: One more compound: CNC1=NC(=O)[C@@H]([C@@H](C)c2c[nH]c3ccccc23)O1
Outgoing: > 128 µg/mL

Incoming: One more compound: CNC1=NC(=O)[C@H]([C@H](C)c2c[nH]c3cccc(Cl)c23)O1
Outgoing: 1 µg/mL

###

- System: Staphylococcus aureus
- Method Notes: Antibacterial activity against methicillin-resistant Staphylococcus aureus MRSA17-2 measured by liquid dilution method
- Type: functional
Quantity Measured: MIC (µg/mL)
Write the answer as a number in µg/mL, unit excluded.

Incoming: Consider the compound shown here: CNC1=NC(=O)[C@@H]([C@@H](C)c2c[nH]c3cccc(Br)c23)O1 What is its recorded MIC?
Outgoing: 128

Incoming: One more compound: CNC1=NC(=O)[C@H]([C@H](C)c2c[nH]c3ccccc23)O1
Outgoing: 0.5

Incoming: One more compound: CNC1=NC(=O)[C@@H]([C@@H](C)c2c[nH]c3c(F)cccc23)O1
Outgoing: 8

Incoming: One more compound: CNC1=NC(=O)[C@H]([C@H](C)c2c[nH]c3cccc(Br)c23)O1
Outgoing: 2

Incoming: One more compound: CNC1=NC(=O)[C@@H]([C@@H](C)c2c[nH]c3cccc(Cl)c23)O1
Outgoing: 64
